Answer each item with its documented apparent KD of MS2 coat protein.
# Test system: MS2 coat protein
# protocol description: apparent KD of MS2 coat protein; designed switch direction (-1 OFF switch, 1 ON switch): 1; higher = weaker reporter binding
# measurement setup: input ligand: FMN 200 uM
Please append the unit to your numeric answer.

Consider the reported apparent KD of MS2 coat protein for these sequences:
>  <entry sequence>
GCGAGCGUACUUGCUACAUGAGGAUCACCCAUGUUUCAUGGACAGGAUAUGGUACCGUUUCGGUACCAGAAGGGUUCACAUGUG [JL SSNG3 3.81] (Eterna round: R96, puzzle: Same State NG 3)

>  <quantity>
apparent KD of MS2 coat protein

>  <measured result>
88.7 nM

$$$$
>  <entry sequence>
AAUUAAGAUCGAGGAUAUCACGUCGAAUAGACGUGAGAAGGCGAUCAUAACAUGAGGAUCACCCAUGUAUUACAUGAAUUAAUU [SSNG1/4-B1] (Eterna round: R96, puzzle: Same State NG 1)

>  <quantity>
apparent KD of MS2 coat protein

>  <measured result>
23.6 nM

$$$$

Continue with the next sequence.
Qu. Report apparent KD of MS2 coat protein, nothing else, for this sequence: GAAGCGGCAGAAUAAAACAUGAGGAUCACCCAUGUCGCGGUUUAGGAUAUGGGACGGGUAUGAACCCAGAAGGAGACCGCAGGC [Eternabot solution 2] (Eterna round: R96, puzzle: Same State NG 3)
Ans. 32.7 nM

###

Give measured apparent KD of MS2 coat protein for each item. Keep answers brief.
# Test system: MS2 coat protein
# protocol description: apparent KD of MS2 coat protein; designed switch direction (-1 OFF switch, 1 ON switch): -1; higher = weaker reporter binding
# measurement setup: Eterna round: R95; input ligand: microRNA oligo, concentration not stated
Answers are plain numbers, in nM.

Take a look at these entries with their results.
>  <entry sequence>
GGUUGGCGAGGAUAUACAUGAGGAUCACCCAUGUGAAAGAAAAAAGUGAGGAAGAAAAGUAGAAGGCGCUGACG [salish99_ex3_r3_016] (puzzle: Exclusion 3)

>  <units text>
nM

>  <apparent KD of MS2 coat protein>
8.93

$$$$
>  <entry sequence>
CGACUGUGAGGAUAUGGUGAGUAGUGCCUGAGCGCUGCUCACCAGAAGGCACAUGAGGAUCACCCAUGUAUAGC [Mat - Exclusion 4 - Mod of JL - D9] (puzzle: Exclusion 4)

>  <units text>
nM

>  <apparent KD of MS2 coat protein>
31.7

$$$$
>  <entry sequence>
UUUUUCAGGCCAGAUCCUCACAUGAGGAUCACCCAUGUGCUCGUCUGUUUUCGCUCUUUCUUUUUUUUGUUUGUGCU [Level Boss var2-19] (puzzle: Sensor v3, turn-off variant 1)

>  <units text>
nM

>  <apparent KD of MS2 coat protein>
27.5

$$$$
>  <entry sequence>
AAUAACAGAGGAUAUACUGUUUUAUGUGUUUGUUAUUUUAAACAUGAGGAUCACCCAUGUAGAAGGCUGAAUAA [JMF 15] (puzzle: Exclusion 2)

>  <units text>
nM

>  <apparent KD of MS2 coat protein>
19.8

$$$$

Qu. Fill: apparent KD of MS2 coat protein (MS2 coat protein) for this sequence CAGGACUUAGGAUAUCAUGUGCGAGACAUGAGGAUCACCCAUGUAGGAAGCCGUCGCGGGUGAGAAGGAGGGCGAU [Exclusion 5 S1] (puzzle: Exclusion 5)
Ans. 277
